Ki data for Acetylcholinesterase (Homo sapiens, UniProt P22303) follow.
measured quantity: Ki

                                   molecule  observed_value
0    Cc1coc2c1C(=O)C(=O)c1c-2ccc2c(C)cccc12        > 100 µM
1  Cc1cccc2c3c(ccc12)C1=C(C(=O)C3=O)[C@@H](C)CO1 [DIHYDROTANSHINONE I]         1.95 µM
2   Cc1coc2c1C(=O)C(=O)c1c-2ccc2c1CCCC2(C)C        > 100 µM
3  C[C@H]1COC2=C1C(=O)C(=O)c1c2ccc2c1CCCC2(C)C         6.41 µM
4  Cc1c(S(=O)(=O)O)oc2c1C(=O)C(=O)c1c-2ccc2c1CCCC2(C)C [SODIUM TANSHINONE IIA SULFONATE]        > 100 µM
5    CC(C)C1=Cc2ccc3c(c2C(=O)C1=O)CCCC3(C)C        > 100 µM

---

- system: Cocaine esterase (Homo sapiens, UniProt O00748)
- Sequence (O00748 whole entry): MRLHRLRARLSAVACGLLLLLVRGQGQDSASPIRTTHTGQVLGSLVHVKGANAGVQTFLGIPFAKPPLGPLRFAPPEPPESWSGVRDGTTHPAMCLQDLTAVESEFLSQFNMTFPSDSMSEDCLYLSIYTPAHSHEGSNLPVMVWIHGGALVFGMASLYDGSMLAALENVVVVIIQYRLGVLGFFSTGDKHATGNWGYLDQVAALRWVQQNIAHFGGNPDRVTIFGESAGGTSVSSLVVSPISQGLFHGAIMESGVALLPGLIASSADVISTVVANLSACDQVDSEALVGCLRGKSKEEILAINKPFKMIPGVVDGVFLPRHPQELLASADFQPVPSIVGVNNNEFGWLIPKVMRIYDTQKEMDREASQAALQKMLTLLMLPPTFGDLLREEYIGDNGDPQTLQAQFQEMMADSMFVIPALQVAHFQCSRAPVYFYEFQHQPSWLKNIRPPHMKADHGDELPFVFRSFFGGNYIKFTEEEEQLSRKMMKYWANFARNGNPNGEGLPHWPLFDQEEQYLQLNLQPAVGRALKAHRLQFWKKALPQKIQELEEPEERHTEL
- assay protocol: Inhibition of human iCE using CPT-11 as substrate by HPLC with fluorescence detection
measured quantity: Ki (nM)

                                   compound  units_text  observed_value
0   Cc1coc2c1C(=O)C(=O)c1c-2ccc2c1CCCC2(C)C          nM            69.4
1    Cc1coc2c1C(=O)C(=O)c1c-2ccc2c(C)cccc12          nM            1410
2  Cc1c(S(=O)(=O)O)oc2c1C(=O)C(=O)c1c-2ccc2c1CCCC2(C)C [SODIUM TANSHINONE IIA SULFONATE]          nM           28800
